Cited source for all entries: patent US20220323406A1

# Test system: ENR+CD organoids (ISC to Paneth cell differentiation)
# method summary: Primary screen: CCh-stimulated lysozyme secretion LYZ.S, 2.5-D 384-well ENR+CD organoid differentiation
# Assay type: cell-based, mouse
# test context: primary screen, dose 0.40 uM
parameter: Dose.FC.LYZ.S (log2 fold change)
Record the value in log2 fold change, omitting the unit from your answer.

1) C=CC(=O)Nc1cccc(Nc2nc(Nc3ccc(Oc4ccnc(C(=O)NC)c4)cc3)ncc2F)c1 [CNX-774] = −0.027
2) CC(C)C[C@H](NC(=O)[C@H](Cc1ccccc1)NC(=O)c1cnccn1)B(O)O [Bortezomib (PS-341)] = −0.173
3) C[C@@H](c1ncncc1F)[C@](O)(Cn1cncn1)c1ccc(F)cc1F [Voriconazole] = 0.120
4) C=CCNC1=C2C[C@@H](C)C[C@H](OC)[C@H](O)[C@@H](C)/C=C(\C)[C@H](OC(N)=O)[C@@H](OC)/C=C\C=C(/C)C(=O)NC(=CC1=O)C2=O [17-AAG (Tanespimycin)] = −0.340
5) N#Cc1c(O)c2c(-c3ccc(-c4ccccc4O)cc3)csc2[nH]c1=O [A-769662] = 0.071

Now look at this entry.
Please give the measured Dose.FC.LYZ.S for this compound: CN(C)C(=O)c1ccc(S(=O)(=O)c2ccc(NC(=O)[C@@](C)(O)C(F)(F)F)c(Cl)c2)cc1 [AZD7545]
−0.017

---

# Test system: ENR+CD organoids
# method summary: Primary screen: ATP (CellTiter-Glo 3D, CTG) cell number/viability, 2.5-D 384-well ENR+CD organoids
# test context: primary screen, dose 0.40 uM
Consider the cut-off -0.1. If the recorded Z.CTG (standard z score) is strictly smaller, the label is Y; if not, the label is N.

These recorded examples may help you get a feel for the data.
1) CC(C)c1onc(-c2c(Cl)cccc2Cl)c1COc1ccc(/C=C/c2cccc(C(=O)O)c2)c(Cl)c1 = N
2) COc1cc(N2CCC(N)CC2)ccc1Nc1ncc(Cl)c(-c2c[nH]c3ccccc23)n1 = Y
3) O=C(c1cn(Cc2cncn2Cc2ccc(Br)cc2)cc1-c1cccc2ccccc12)N1CCOCC1 = Y

Given "COc1ccc(COc2ccc(Cc3cnc(N)nc3N)cc2OC)cc1" , is recorded Z.CTG (standard z score) strictly lower than -0.1?
Y

Quick check: does "CN(C)CCCCC(=O)Nc1ccc(NC(=S)NC(=O)c2ccc(C(C)(C)C)cc2)cc1" have Z.CTG (standard z score) under -0.1?
Y

Take the molecule "C[C@]1(c2nc3c(C(N)=O)cccc3[nH]2)CCCN1" and say whether its Z.CTG (standard z score) is less than -0.1.
N

Does C[C@H]1COC2(CCN(c3nc(=O)c4cc(C(F)(F)F)cc([N+](=O)[O-])c4s3)CC2)O1 (racemic) [BTZ043 Racemate] have Z.CTG (standard z score) strictly under -0.1?
N

Regarding "CN(C)Cc1ccc(-c2nc3cccc4c3n2CCNC4=O)cc1" , kindly confirm whether its Z.CTG (standard z score) is beneath -0.1.
Y

Z.CTG (standard z score) strictly < -0.1 for this molecule? "C[C@@H]1CCN(C(=O)CC#N)C[C@@H]1N(C)c1ncnc2[nH]ccc12"
N

Quick check: Z.CTG (standard z score) of "N#Cc1c(O)c2c(-c3ccc(-c4ccccc4O)cc3)csc2[nH]c1=O" under -0.1?
N

Is it true that Z.CTG (standard z score) reported for "COc1cc(-c2ncn(/C=C\C(=O)OC(C)C)n2)cc(C(F)(F)F)c1" is less than -0.1?
N

---

Listed here: items and their measured Dose.FC.CTG.
# Test system: ENR+CD organoids
# method summary: Primary screen: ATP (CellTiter-Glo 3D, CTG) cell number/viability, 2.5-D 384-well ENR+CD organoids;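 note: compounds given at plating and again on day 3 over a 6-day differentiation from ENR+CV stem-cell-enriched precursors, ATP measured on day 6, plate median as control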
# test context: primary screen, dose 0.08 uM
Answer format: numeric, log2 fold change implied, no suffix.

Solved entries:
1. CS(=O)(=O)c1ccc(-c2cnc(N)c(C(=O)Nc3ccccc3)n2)cc1 = 0.213
2. CC(C)C[C@@H](C(=O)N[C@H](C(=O)OC1CCCC1)c1ccccc1)[C@H](O)C(=O)NO = −0.097
3. N#C[C@@H]1CCCN1C(=O)CNC12CC3CC(CC(O)(C3)C1)C2 = 0.232
4. O=C(c1ccc(F)cc1)N1CCC[C@H](c2nc(-c3ccc(F)cc3)no2)C1 = 0.115
5. Cc1cc(Nc2cc(N3CCN(C)CC3)nc(Sc3ccc(NC(=O)C4CC4)cc3)n2)n[nH]1 = −0.150
6. CC(C)Oc1ccc(-c2cnc3c(-c4ccnc5ccccc45)cnn3c2)cc1 = −0.031

Looking for the measured Dose.FC.CTG of "CCC(CC)CC1(C(=O)Nc2ccccc2SC(=O)C(C)C)CCCCC1" , can you help?
0.112

Data request, read-out Dose.FC.CTG, for CNC(=O)c1ccc(N2C(=S)N(c3ccc(C#N)c(C(F)(F)F)c3)C(=O)C2(C)C)cc1F [Enzalutamide (MDV3100)]
0.195

---

# Tested on: ENR+CD organoids (ISC to Paneth cell differentiation)
# method summary: Primary screen: basal (non-stimulated) lysozyme secretion LYZ.NS, 2.5-D 384-well ENR+CD organoid differentiation
# Format: cell-based, mouse
# test context: primary screen, dose 0.08 uM
Counter-ions that a name gives are not always drawn.
parameter: Dose.FC.LYZ.NS (log2 fold change)
The figure you give is taken to be in log2 fold change; do not add the unit.

1. CCc1cccc2c3c([nH]c12)C(CC)(CC(=O)O)OCC3 (centres unmarked) = 0.046
2. CN1CCCCC1Cn1cc(C(=O)c2cc([N+](=O)[O-])ccc2I)c2ccccc21 (centres unmarked) = 0.052
3. Cc1c(Cl)cccc1Nc1ccccc1C(=O)O = 0.028

If you can, please state the reported Dose.FC.LYZ.NS value of CCNC(=O)[C@H]1O[C@@H](n2cnc3c(N)nc(NCCc4ccc(CCC(=O)O)cc4)nc32)[C@H](O)[C@@H]1O [CGS 21680 HCl] .
0.132

Requested read-out: Dose.FC.LYZ.NS. Entry: CNC(=O)c1ccc(N2C(=S)N(c3ccc(C#N)c(C(F)(F)F)c3)C(=O)C2(C)C)cc1F [Enzalutamide (MDV3100)]
0.162

Look up Dose.FC.LYZ.NS for this compound: "O=c1ncn2nc(Sc3ccc(F)cc3F)ccc2c1-c1c(Cl)cccc1Cl"
0.092

Look at this compound and give its reported Dose.FC.LYZ.NS. O=C(O)C(Cc1ccccc1[N+](=O)[O-])=NNc1nc(-c2ccc(Cl)c(Cl)c2)cs1 (mixture of isomers)
0.110

Data request, read-out Dose.FC.LYZ.NS, for "Cc1cc(C)nc(NS(=O)(=O)c2ccc(NC(=S)NC(=O)COc3ccc(Br)cc3Cl)cc2)n1"
−0.084

---

# Tested on: ENR+CD organoids (ISC to Paneth cell differentiation)
# method summary: Primary screen: basal (non-stimulated) lysozyme secretion LYZ.NS, 2.5-D 384-well ENR+CD organoid differentiation
# Format: cell-based, mouse
# test context: primary screen, standard z score, dose 0.08 uM
Counter-ions that a name gives are not always drawn.
parameter: Z.LYZ.NS

Observe how each entry below is paired with its result.
1. O=c1[nH]c2ccc(Cl)cc2c(N[C@@H]2CN3CCC2CC3)c1-c1nc2ccccc2[nH]1 = −1.352
2. NC(=O)C1CCCc2c1[nH]c1ccc(Cl)cc21 (centres unmarked) [EX 527 (Selisistat)] = 0.871
3. O=C(Nc1cccc(Nc2ncc(Br)c(NCCc3cnc[nH]3)n2)c1)N1CCCC1 = 0.090
4. CC(C)Oc1ccc(-c2cnc3c(-c4ccnc5ccccc45)cnn3c2)cc1 = 0.155
5. CN1CCC[C@@H]1CCO[C@](C)(c1ccccc1)c1ccc(Cl)cc1 [Clemastine Fumarate] = 0.210

What Z.LYZ.NS value was documented for this compound, C[C@@H](NCCCc1cccc(C(F)(F)F)c1)c1cccc2ccccc12 [Cinacalcet HCl] ?
−0.536

What measured Z.LYZ.NS goes with COc1cc(Nc2ncc(F)c(Nc3ccc4c(n3)N(COP(=O)(O)O)C(=O)C(C)(C)O4)n2)cc(OC)c1OC [Fostamatinib (R788)] ?
1.033

Request the reported Z.LYZ.NS associated with "C[C@H]1COC2=C1C(=O)C(=O)c1c2ccc2c1CCCC2(C)C"
1.243

Give the measured Z.LYZ.NS of CC1C(=O)OC2C(O)C34C5CC(C(C)(C)C)C36C(OC(=O)C6O)OC4(C(=O)O5)C12O (centres unmarked) [Ginkgolide B] .
0.353

Query: Z.LYZ.NS; subject: "CS(=O)(=O)N1CCN(Cc2cc3nc(-c4cccc5[nH]ncc45)nc(N4CCOCC4)c3s2)CC1"
0.070

If you can, please state the reported Z.LYZ.NS value of COc1ccc(C[C@@H](C)NC[C@H](O)c2ccc(O)c(NC=O)c2)cc1.COc1ccc(C[C@@H](C)NC[C@H](O)c2ccc(O)c(NC=O)c2)cc1.O=C(O)/C=C/C(=O)O [Formoterol Hemifumarate] .
1.263

May I ask what Z.LYZ.NS has been recorded for C[C@H](N[C@@H](CCc1ccccc1)C(=O)O)C(=O)N1CCC[C@H]1C(=O)O.O.O [Enalaprilat Dihydrate] ?
0.027

Reported Z.LYZ.NS, compound "CCN(CC)C(=O)/C(C#N)=C/c1cc(O)c(O)c([N+](=O)[O-])c1" : ____
1.183

Query (compound): "O=C(N/N=C/c1ccc(O)c(O)c1)c1cc2ccccc2cc1O" ; field requested: Z.LYZ.NS
0.431
